meta.source: patent US20240270821A1

# Tested System: hGIPR (Homo sapiens)
# Sequence (P48546 22-466): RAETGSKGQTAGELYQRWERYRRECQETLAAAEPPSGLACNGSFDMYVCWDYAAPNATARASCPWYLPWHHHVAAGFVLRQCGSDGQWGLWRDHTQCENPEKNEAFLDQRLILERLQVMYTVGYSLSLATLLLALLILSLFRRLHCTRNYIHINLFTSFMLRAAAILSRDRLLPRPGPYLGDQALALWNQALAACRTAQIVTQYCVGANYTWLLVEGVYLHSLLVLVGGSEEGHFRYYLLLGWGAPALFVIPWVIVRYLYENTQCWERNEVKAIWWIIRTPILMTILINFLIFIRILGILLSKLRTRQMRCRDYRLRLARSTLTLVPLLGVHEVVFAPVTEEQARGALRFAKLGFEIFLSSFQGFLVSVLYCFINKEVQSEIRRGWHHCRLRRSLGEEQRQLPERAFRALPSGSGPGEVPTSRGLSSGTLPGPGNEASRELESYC
# Experiment: Functional cAMP activation in the presence of 0.1% casein (no HSA);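 further: intracellular cAMP rise after 30 min at 37 °C read by HTRF against a standard curve, scaled between buffer alone (0%) and top control ligand concentration (100%), four-parameter fit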
# Assay type: cell-based
# Experimental Context: in the presence of 0.1% casein (no HSA); geometric mean; read-out: Relative cAMP EC50, hGIPR
Starred links: 1 amine or outer side, 2 acyl side, 3 side chain; linkers in the order of their positions; H or OH if unused. Non-standard residues stand in square brackets, D forms with d. Groups on a side chain read outwards from the residue. No end group written: not given here. *: point of attachment. C18 diacid = O=C(O)CCCCCCCCCCCCCCCCC(=O)*; αMePhe(2-F) = C[C@](N)(Cc1ccccc1F)C(=O)O; γGlu = O=C(O)[C@H](CCC(=O)[*:2])N[*:1]; αMe4Pal = C[C@](N)(Cc1ccncc1)C(=O)O; αMeY = C[C@](N)(Cc1ccc(O)cc1)C(=O)O; 4Pal = N[C@@H](Cc1ccncc1)C(=O)O; αMeL = CC(C)C[C@](C)(N)C(=O)O; αMeS = C[C@](N)(CO)C(=O)O; Orn = NCCC[C@H](N)C(=O)O; Dab = NCC[C@H](N)C(=O)O; AEEA = NCCOCCOCC(=O)O; Aib = CC(C)(N)C(=O)O
Exam item: assign fulfilled to entries whose EC50 is below 0.2 nM and not fulfilled to entries at or above 0.2 nM. Note that a value of exactly 0.2 nM receives not fulfilled.

Request: In the record for H-Y[Aib]QGTFTSD[4Pal]SQ[αMeL]LDKK([dE-γGlu-C18 diacid])AQ[αMe4Pal]AFIEYLIAGGPSSGAPPPSGE-NH2 [Example 1085] , is EC50 less than 0.2 nM?
Result: fulfilled

Request: In the record for Y[Aib]QGTFTSDFS[Dab][αMeL]LDKK([AEEA-γGlu-C18 diacid])AQ[Aib]AFIEYLLEGGPSSGAPPPGGS-NH2 [Example 67] , is EC50 less than 0.2 nM?
Result: not fulfilled

Request: In the record for H-Y[Aib]QGTFTSD[4Pal]SQ[αMeL]LDKK([γGlu-γGlu-C18 diacid])AQ[αMe4Pal]AFIEYLIE[Aib]GPSSGAPPPSGSEEE-NH2 [Example 900] , is EC50 less than 0.2 nM?
Result: fulfilled

Request: In the record for H-Y[Aib]QGTFTSDFS[Orn][αMeL]LDKK([AEEA-AEEA-γGlu-C18 diacid])AQ[Aib]AFIEYLLE[dA]GPSSGEPPPSGT-NH2 [Example 156] , is EC50 less than 0.2 nM?
Result: not fulfilled

Request: In the record for H-Y[Aib]QGT[αMePhe(2-F)]TSD[4Pal][αMeS]I[αMeL]LD[Orn]K([AEEA-γGlu-C18 diacid])AQ[αMe4Pal]EFI[dE][αMeY]LVEGGPSSGEPPPGGE-NH2 [Example 1155] , is EC50 less than 0.2 nM?
Result: fulfilled

Request: In the record for H-Y[Aib]QGTFTSDFSK[αMeL]LDKK([AEEA-γGlu-C18 diacid])AQ[Aib]QFIEYLLEGGPSSGAPPPSEG-NH2 [Example 51] , is EC50 less than 0.2 nM?
Result: not fulfilled
